Tested on: HCC 2998
Assay: NCI tumour cell line growth inhibition, 48 h
Active and inactive are the calls of the source. Cut-off read from the data, not from the text of the source: active = GI50 up to about 1.1 µM and inactive = higher.
# key: entry, value: GI50
experimental-readout: GI50

[[record]]
molecule = "CC1=NN(c2nc(N)nc(/C(C#N)=C/c3ccccc3O)n2)C(C)(C)C1"
experimental_result = "19.5 µM (inactive)"

[[record]]
molecule = "C=C[C@@]1(C)CC(=O)[C@]2(O)[C@@]3(C)[C@@H](OC(C)=O)CCC(C)(C)[C@@H]3[C@H](O)[C@H](OC(C)=O)[C@@]2(C)O1"
experimental_result = "> 100 µM (inactive)"

[[record]]
molecule = "CC(C)C(Cl)CCC(C)(Cl)C(=O)CBr (stereo unspecified)"
experimental_result = "18.5 µM (inactive)"

[[record]]
molecule = "Cc1ccc(O)c(C2=NNC(c3cccc(Br)c3)C2)c1 (stereo unspecified)"
experimental_result = "60.8 µM (inactive)"

[[record]]
molecule = "CC1NC(/C(=C/c2ccccc2O)NC(=O)c2ccccc2)OC1=O (stereo unspecified)"
experimental_result = "> 50 µM (inactive)"

[[record]]
molecule = "CC[N+]1(C)CCC(O)(/C=C/c2ccc(Cl)c(Cl)c2)C(C(=O)/C=C/c2ccc(Cl)c(Cl)c2)C1 (stereo unspecified)"
experimental_result = "1.95 µM (inactive)"


----------
System: COLO 205
Assay: NCI tumour cell line growth inhibition, 48 h
Active and inactive are the calls of the source. Cut-off read from the data, not from the text of the source: active = GI50 up to about 1.1 µM and inactive = higher.
Possible outcomes: label 1 = active, label 0 = inactive

[[record]]
molecule = "CC[N+]1(C)CCC(O)(/C=C/c2ccc(Cl)c(Cl)c2)C(C(=O)/C=C/c2ccc(Cl)c(Cl)c2)C1 (stereo not drawn)"
category_label = "label 0"

[[record]]
molecule = "Nc1ncnc2c1nc(Cl)n2C1OC2COP(=O)(O)OC2C1O (stereo not drawn)"
category_label = "label 0"

[[record]]
molecule = "O=C(c1ccc2ccccc2c1)N(Cc1cccnc1)C(=S)N(Cc1cccnc1)C(=O)c1ccc2ccccc2c1"
category_label = "label 0"

[[record]]
molecule = "COc1ccc(C(=C2C(=O)N(c3ccccc3)C(=O)C2=C(C)C)c2ccc(OC)cc2)cc1"
category_label = "label 0"

[[record]]
molecule = "N#Cc1ccc(Oc2ccccc2)cc1C#N"
category_label = "label 0"

[[record]]
molecule = "COc1cccc(SSc2cccc(OC)c2C(=O)O)c1C(=O)O"
category_label = "label 0"

[[record]]
molecule = "O=C(O)c1ccc(C(=O)O)c2c(C(=O)O)ccc(C(=O)O)c12"
category_label = "label 0"

[[record]]
molecule = "CC1=C2C(=O)c3ccccc3C(=O)[C@H]2C[C@@H](N2CCCC2=O)O1"
category_label = "label 0"

[[record]]
molecule = "N=C(N)c1ccc(/N=N\\c2c(O)ccc3c2[nH]c2ccccc23)cc1"
category_label = "label 0"

[[record]]
molecule = "CC1OC23CCCCC2C(C#N)(C#N)C1(C#N)C(=N)O3 (stereo not drawn)"
category_label = "label 0"

[[record]]
molecule = "C[S+](C)CC1OC(n2cnc3c(N)ncnc32)C(O)C1O (stereo not drawn)"
category_label = "label 0"

[[record]]
molecule = "COc1cc(/C=N/NC(=O)c2c(Cl)c(Cl)c(Cl)c(Cl)c2-c2nc3ccccc3[nH]2)ccc1O"
category_label = "label 0"

[[record]]
molecule = "O=C(O)c1cc(O)c2c(c1)C([C@@H]1c3cccc(O)c3C(=O)c3c(O)cc(C(=O)O)cc31)c1cccc(O)c1C2=O (stereo partly drawn)"
category_label = "label 0"

[[record]]
molecule = "Cc1ccc(C2=Nc3cc(C)c(Cl)cc3S(=O)(=O)NN2)cc1"
category_label = "label 0"

[[record]]
molecule = "COc1cc(C2c3cc4c(cc3OC(NNC(N)=S)C2C)OCO4)cc(OC)c1OC (stereo not drawn)"
category_label = "label 1"

[[record]]
molecule = "O=c1c2c3c(sc2nc2n1N=C(c1ccc(Br)cc1)CS2)CCCC3"
category_label = "label 0"

[[record]]
molecule = "CCOC(=O)C(NCc1cccc(C(F)(F)F)c1)(NC(=O)CC)C(F)(F)F (stereo not drawn)"
category_label = "label 0"

[[record]]
molecule = "CCOP(=O)(OCC)OC1CC(n2cc(C)c(=O)n(C)c2=O)OC1CO[Si](C)(C)C(C)(C)C (stereo not drawn)"
category_label = "label 0"

[[record]]
molecule = "Cc1cc(NC(=O)C2C3C=CC(O3)C2C(=O)O)no1 (stereo not drawn)"
category_label = "label 0"

[[record]]
molecule = "O=C(c1ccc2ccccc2c1)C1(I)S(=O)(=O)OCCOS1(=O)=O"
category_label = "label 0"

[[record]]
molecule = "Cc1ccc(S(=O)(=O)NC(=O)OC23COCN2COC3)cc1"
category_label = "label 0"

[[record]]
molecule = "CN(C)CCCNC(=O)CCNC(=O)c1cc(NC(=O)c2cc(NC(=O)c3cc(NC(=O)CCCNC(=O)c4cc(NC(=O)c5cc(NC(=O)c6nccn6C)cn5C)cn4C)cn3C)cn2C)cn1C"
category_label = "label 0"

[[record]]
molecule = "O=C(Nc1ccccc1C(=O)NCc1ccccc1)/C(=C/c1ccccc1O)NC(=O)c1ccccc1"
category_label = "label 0"

[[record]]
molecule = "CC12C3CC4C5CC(C(C53)[C@@H]1NCc1ccccc1)C42 (stereo partly drawn)"
category_label = "label 0"

[[record]]
molecule = "COc1cc(NS(C)(=O)=O)ccc1Nc1ccnc2ccc3[nH]ccc3c12"
category_label = "label 0"

[[record]]
molecule = "CC(C)=CC(=O)C1c2cccc(O)c2C(=O)c2c(O)cc(C)cc21 (stereo not drawn)"
category_label = "label 0"

[[record]]
molecule = "CC(C)=CCOc1cc(NC(=S)c2ccoc2C)ccc1Cl [UC 781]"
category_label = "label 0"

[[record]]
molecule = "COC(=O)c1c(C)c2c(c(C)c1C(=O)OC)-c1c(C)ccc3ccc(C)c-2c13"
category_label = "label 0"

[[record]]
molecule = "CCOC(=O)CNC(=O)NC12CC3CC(CC(C3)C1)C2"
category_label = "label 0"

[[record]]
molecule = "CN(C)c1ccc(C=c2c3ccccc3n3c2cc(-c2ccc(Cl)cc2)[n+]3C)cc1"
category_label = "label 1"

[[record]]
molecule = "Cc1cc(C)c2c(c1)Nc1ccccc1P2c1ccccc1 (stereo not drawn)"
category_label = "label 0"

[[record]]
molecule = "O=c1cc2oc3ccc4ccccc4c3cc-2c(=O)[nH]1"
category_label = "label 0"

[[record]]
molecule = "CC(C)(C)OC(=O)[C@@H]1CCC(=S)N1Cc1ccccc1"
category_label = "label 0"

[[record]]
molecule = "Cc1c2c(n(CCc3ccc(Cl)cc3)c1C)NC(c1ccccc1)C(C#N)S2(=O)=O (stereo not drawn)"
category_label = "label 0"

[[record]]
molecule = "CC(C)(C)c1cc(C(O)(C(=O)O)C(=O)O)cc(C(C)(C)C)c1O"
category_label = "label 0"

[[record]]
molecule = "COc1cc2cnc3c4cc(OC)c(OC(C)C)cc4ccc3c2cc1OC"
category_label = "label 0"

[[record]]
molecule = "COC(=O)/C=C1\\C(=O)N(C(C)=O)c2ccccc21"
category_label = "label 0"

[[record]]
molecule = "N#CC(C(=O)/C(=N/N)C(C#N)c1ccc(Cl)cc1)c1ccc(Cl)cc1 (stereo not drawn)"
category_label = "label 0"

